# experimental.target: UniProtKB P29452
# Sequence (P29452 123-296 limits assumed): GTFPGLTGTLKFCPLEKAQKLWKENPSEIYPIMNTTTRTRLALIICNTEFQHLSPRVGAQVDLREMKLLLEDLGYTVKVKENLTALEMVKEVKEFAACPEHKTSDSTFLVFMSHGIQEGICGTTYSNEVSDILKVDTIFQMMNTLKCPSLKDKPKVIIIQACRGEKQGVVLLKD
# Sequence (P29452 315-402 limits assumed): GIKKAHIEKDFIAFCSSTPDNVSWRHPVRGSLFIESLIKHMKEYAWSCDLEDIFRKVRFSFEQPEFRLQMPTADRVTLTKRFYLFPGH
# assay.comment: Fluorescence enzyme assay, IC50 determination, ICE
# Type: biochemical
# settings: Table 3; method of Preparation 3A; read-out: mICE I50
quantity.measured: IC50 (nM)
Respond with the bare value in nM.

Sample answers from the record:
{"columns": ["compound.structure", "IC50, nM"],
 "data": [
  ["CC(C)C[C@H](NC(=O)CSc1ccc2ccccc2c1)C(=O)N[C@H](C=O)CC(=O)O", 792],
  ["CC(C)C[C@H](NC(=O)COc1ccc(Cc2ccccc2)cc1)C(=O)N[C@H](C=O)CC(=O)O", 1800],
  ["CC(C)C[C@H](NC(=O)COc1c(Cl)cc(Cl)c2ccccc12)C(=O)N[C@H](C=O)CC(=O)O", 141]
]}

Could you now consider this next molecule?
Problem: Output IC50 of CC(C)C[C@H](NC(=O)COc1ccc(OCc2ccccc2)cc1)C(=O)N[C@H](C=O)CC(=O)O
Solution: 2510
